biological target: MAP3K7 (human); assay: KINOMEscan competition binding; conditions: compound 10.0 µM
Reported values of kinase still bound, per cent of control for individual entries
reported-property: kinase still bound, per cent of control (%)

record_smiles=Cc1n[nH]c2ccc(-c3cncc(OC[C@@H](N)Cc4c[nH]c5ccccc45)c3)cc12 test_result=3.2
record_smiles=O=C1NC(=O)/C(=C/c2ccc3nccc(-c4ccncc4)c3c2)S1 test_result=62
record_smiles=CNC(=O)c1ccc(Nc2cc(Nc3ccccc3S(=O)(=O)C(C)C)c3cc[nH]c3n2)nc1 test_result=0.35

====

target: MARK3 (human); assay: KINOMEscan competition binding; settings: compound 10.0 µM
Entries whose kinase still bound, per cent of control is below 70% take criterion met; entries at or above 70% take criterion not met.

record_smiles=CNC(=O)c1cc(Oc2ccc(NC(=O)Nc3ccc(Cl)c(C(F)(F)F)c3)cc2)ccn1 class_label="criterion not met"
record_smiles=C=CC(=O)Nc1ccc(CN(C(=O)Nc2c(Cl)c(OC)cc(OC)c2Cl)c2cc(Nc3ccc(N4CCN(C)CC4)cc3)ncn2)cc1 class_label="criterion not met"
record_smiles=COc1ccc(N(C(=O)Oc2c(C)cccc2C)c2ccnc(Nc3ccc(N4CCN(C)CC4)cc3)n2)c(OC)c1 class_label="criterion met"
record_smiles=O=C(Nc1cccc(Nc2ncc(Br)c(NCCc3cnc[nH]3)n2)c1)N1CCCC1 class_label="criterion met"
record_smiles=CNC(=O)c1ccc(Nc2cc(Nc3ccccc3S(=O)(=O)C(C)C)c3cc[nH]c3n2)nc1 class_label="criterion met"
record_smiles=O=C1NC(=O)/C(=C/c2ccc3nccc(-c4ccncc4)c3c2)S1 class_label="criterion not met"
record_smiles=COCC(=O)NC/C=C/c1ccc2ncnc(Nc3ccc(Oc4ccc(C)nc4)c(C)c3)c2c1 class_label="criterion not met"
record_smiles=COc1cc2ncn(-c3cc(OCc4ccccc4C(F)(F)F)c(C(N)=O)s3)c2cc1OC class_label="criterion not met"
record_smiles=CN(C)C/C=C/C(=O)Nc1ccc(C(=O)Nc2cccc(Nc3nccc(-c4cccnc4)n3)c2)cc1 class_label="criterion not met"

====

system: KIT (human), P10721 [L576P]; experiment: KINOMEscan competition binding; conditions: compound 10.0 µM
Sequence (P10721 whole entry L576P, looked up): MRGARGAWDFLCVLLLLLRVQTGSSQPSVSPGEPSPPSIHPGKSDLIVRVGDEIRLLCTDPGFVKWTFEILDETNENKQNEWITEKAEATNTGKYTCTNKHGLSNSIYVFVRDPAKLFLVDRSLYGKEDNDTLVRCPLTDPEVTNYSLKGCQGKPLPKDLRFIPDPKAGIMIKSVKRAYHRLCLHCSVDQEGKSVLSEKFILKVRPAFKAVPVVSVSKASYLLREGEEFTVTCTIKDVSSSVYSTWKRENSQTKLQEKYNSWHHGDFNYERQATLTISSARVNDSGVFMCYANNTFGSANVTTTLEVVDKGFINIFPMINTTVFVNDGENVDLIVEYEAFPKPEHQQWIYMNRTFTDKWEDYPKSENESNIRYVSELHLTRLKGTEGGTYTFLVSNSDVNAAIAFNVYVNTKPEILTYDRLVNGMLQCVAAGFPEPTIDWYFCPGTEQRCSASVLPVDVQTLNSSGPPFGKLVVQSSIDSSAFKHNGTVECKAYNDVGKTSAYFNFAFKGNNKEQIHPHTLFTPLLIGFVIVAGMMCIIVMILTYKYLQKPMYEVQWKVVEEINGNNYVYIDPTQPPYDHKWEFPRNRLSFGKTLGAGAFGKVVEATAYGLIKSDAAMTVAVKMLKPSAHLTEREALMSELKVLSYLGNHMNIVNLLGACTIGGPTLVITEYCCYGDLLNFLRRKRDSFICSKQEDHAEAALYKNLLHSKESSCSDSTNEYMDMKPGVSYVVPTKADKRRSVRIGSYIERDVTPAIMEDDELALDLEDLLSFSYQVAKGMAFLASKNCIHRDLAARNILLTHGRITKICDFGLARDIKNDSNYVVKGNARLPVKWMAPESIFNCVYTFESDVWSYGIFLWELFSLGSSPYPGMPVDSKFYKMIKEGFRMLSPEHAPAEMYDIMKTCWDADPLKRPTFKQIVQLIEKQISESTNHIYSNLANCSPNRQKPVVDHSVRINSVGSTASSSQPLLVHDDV
Entries whose kinase still bound, per cent of control is below 0.6% take Y; entries at or above 0.6% take N.

compound=OCCCNc1cc(-c2ccnc(Nc3cccc(Cl)c3)n2)ccn1 class_label=N
compound=COc1cc(C(=O)NC2CCN(C)CC2)ccc1Nc1ncc2c(n1)N(C1CCCC1)CCC(=O)N2C(C)C class_label=N
compound=COc1cc2c(Nc3ccc(NC(=O)c4ccccc4)cc3)ncnc2cc1OCCCN1CCOCC1 class_label=Y
compound="CC1=C(C(=O)Nc2cc3cn[nH]c3cc2F)C(c2ccc(C(F)(F)F)cc2)CC(=O)N1 (centres undefined)" class_label=N
compound=Cc1ccc(NC(=O)c2cccc(C(C)(C)C#N)c2)cc1Nc1ccc2ncn(C)c(=O)c2c1 class_label=Y
compound=COc1cc2ncnc(Nc3cccc(Cl)c3)c2cc1OC class_label=N
compound=O=C1NC(=O)/C(=C/c2ccc3nccc(-c4ccncc4)c3c2)S1 class_label=N
compound=CCCS(=O)(=O)Nc1ccc(F)c(C(=O)c2c[nH]c3ncc(-c4ccc(Cl)cc4)cc23)c1F class_label=Y
compound=COc1cc2ncn(-c3cc(OCc4ccccc4C(F)(F)F)c(C(N)=O)s3)c2cc1OC class_label=N
compound=C=CC(=O)Nc1ccc(C(=O)c2sc(Nc3ccc(N4CCN(C)CC4)cc3OC)nc2N)cc1 class_label=N
compound=CCOc1cc(N2CCC(O)CC2)ccc1Nc1ncc2c(n1)N(C)c1ccccc1C(=O)N2C class_label=N
compound=CCc1nc(-c2cccc(C)c2)c(-c2ccnc(NC(=O)c3ccccc3)c2)s1 class_label=N
compound=C=CC(=O)Nc1cc(NC(=O)c2ccc(C)c(NC(=O)c3ccno3)c2)cc(C(F)(F)F)c1 class_label=N
compound=CN(C)C/C=C/C(=O)Nc1ccc(C(=O)Nc2cccc(Nc3nccc(-c4cccnc4)n3)c2)cc1 class_label=Y
compound=CNC(=O)c1cc(Oc2ccc(NC(=O)Nc3ccc(Cl)c(C(F)(F)F)c3)cc2)ccn1 class_label=Y
compound=Cc1cn(-c2cc(C(=O)Nc3ccc(C)c(NC(=O)c4ccno4)c3)cc(C(F)(F)F)c2)cn1 class_label=Y
compound=O=C(Nc1cccc(Nc2ncc(Br)c(NCCc3cnc[nH]3)n2)c1)N1CCCC1 class_label=Y
compound=O=C(O)c1ccc(Nc2ncc3c(n2)-c2ccc(Cl)cc2C(c2c(F)cccc2F)=NC3)cc1 class_label=N
compound=CCN1CCN(Cc2ccc(Nc3ncc4c(n3)N(C)c3ccccc3C(=O)N4C)cc2C(F)(F)F)CC1 class_label=N
